Parameter hFAP Binding assay k(off): see the listing below.
Biological target: hFAP (M39-A757) (Homo sapiens (Human))
Sequence (Q12884 39-757): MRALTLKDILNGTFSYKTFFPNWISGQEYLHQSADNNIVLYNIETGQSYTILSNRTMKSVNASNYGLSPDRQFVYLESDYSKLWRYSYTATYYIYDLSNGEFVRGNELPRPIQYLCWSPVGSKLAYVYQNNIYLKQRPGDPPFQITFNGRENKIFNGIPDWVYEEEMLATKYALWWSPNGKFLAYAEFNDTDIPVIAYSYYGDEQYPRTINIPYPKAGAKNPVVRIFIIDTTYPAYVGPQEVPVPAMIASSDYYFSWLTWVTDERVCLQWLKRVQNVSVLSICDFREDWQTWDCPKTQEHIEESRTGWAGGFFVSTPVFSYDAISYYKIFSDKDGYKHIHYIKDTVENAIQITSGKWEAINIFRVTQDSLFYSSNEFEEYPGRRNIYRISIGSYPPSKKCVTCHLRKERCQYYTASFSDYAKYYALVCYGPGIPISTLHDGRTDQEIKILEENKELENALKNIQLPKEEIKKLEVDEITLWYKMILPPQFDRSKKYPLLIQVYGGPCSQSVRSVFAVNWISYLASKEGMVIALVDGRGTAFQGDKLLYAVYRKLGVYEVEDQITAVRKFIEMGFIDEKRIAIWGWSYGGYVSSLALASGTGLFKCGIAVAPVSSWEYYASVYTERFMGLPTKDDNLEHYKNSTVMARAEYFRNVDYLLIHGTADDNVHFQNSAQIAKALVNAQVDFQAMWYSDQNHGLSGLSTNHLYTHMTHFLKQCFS
Test: hFAP binding assay (surface plasmon resonance)
Settings: SPR, 20° C., single cycle kinetics
Measured Property: hFAP Binding assay k(off) (s⁻¹)

{"Compound": "CN1CCC(F)(c2ccc3nccc(C(=O)NCC(=O)N4CSC[C@H]4C#N)c3c2)CC1", "Reading": 0.000061}
{"Compound": "N#C[C@@H]1CSCN1C(=O)CNC(=O)c1ccnc2ccc(N3C4CCC3CC4)cc12", "Reading": 0.000042}
{"Compound": "CC1(C)CCN(c2ccc3nccc(C(=O)NCC(=O)N4CSC[C@H]4C#N)c3c2)CC1", "Reading": 0.000052}
{"Compound": "C[C@@H]1CCN(c2ccc3nccc(C(=O)NCC(=O)N4CSC[C@H]4C#N)c3c2)C1=O (single isomer, unassigned)", "Reading": 0.000070}
{"Compound": "N#C[C@@H]1CSCN1C(=O)CNC(=O)c1ccnc2ccc(N3CCC4(CC4)C3)cc12", "Reading": 0.00017}
{"Compound": "CC1(F)CCN(c2ccc3nccc(C(=O)NCC(=O)N4CSC[C@H]4C#N)c3c2)CC1", "Reading": 0.000082}
{"Compound": "CO[C@@H]1CCN(c2ccc3nccc(C(=O)NCC(=O)N4CSC[C@H]4C#N)c3c2)C1", "Reading": 0.00028}
{"Compound": "N#C[C@@H]1CSCN1C(=O)CNC(=O)c1ccnc2ccc(-c3cncnc3)cc12", "Reading": 0.0020}

---

Assay: Caco-2 cell permeability
Conditions: human
Parameter efflux ratio: see the listing below.

{"Compound String": "CO[C@H]1CCN(c2ccc3nccc(C(=O)NCC(=O)N4CSC[C@H]4C#N)c3c2)C1", "efflux ratio": 13}
{"Compound String": "CS(=O)(=O)C[C@H]1CN(c2ccc3nccc(C(=O)NCC(=O)N4CSC[C@H]4C#N)c3c2)CCO1", "efflux ratio": 35}
{"Compound String": "CC(C)C1(O)CCN(c2ccc3nccc(C(=O)NCC(=O)N4CSC[C@H]4C#N)c3c2)CC1", "efflux ratio": 76}
{"Compound String": "CC1(C)COC12CN(c1ccc3nccc(C(=O)NCC(=O)N4CSC[C@H]4C#N)c3c1)C2", "efflux ratio": 34}

---

Parameter efflux ratio: see the listing below.
Experiment: Caco-2 cell permeability
Settings: human

{"Compound": "COC1(C)CCN(c2ccc3nccc(C(=O)NCC(=O)N4CSC[C@H]4C#N)c3c2)CC1 [Example 42]", "efflux ratio": 12}
{"Compound": "N#C[C@@H]1CSCN1C(=O)CNC(=O)c1ccnc2ccc(N3CCOC4(CCOCC4)C3)cc12 [Example 99]", "efflux ratio": 46}
{"Compound": "CC1(C)CCCN(c2ccc3nccc(C(=O)NCC(=O)N4CSC[C@H]4C#N)c3c2)C1=O [Example 15]", "efflux ratio": 45}
{"Compound": "N#C[C@@H]1CSCN1C(=O)CNC(=O)c1ccnc2ccc(N3CCCCC3)cc12 [Example 32]", "efflux ratio": 3.3}
{"Compound": "Cc1ccc(-c2ccc3nccc(C(=O)NCC(=O)N4CSC[C@H]4C#N)c3c2)cn1 [Example 177]", "efflux ratio": 17}
{"Compound": "C[C@@H]1COC[C@H](C)N1c1ccc2nccc(C(=O)NCC(=O)N3CSC[C@H]3C#N)c2c1 [Example 90]", "efflux ratio": 16}
{"Compound": "C[C@]1(F)CCN(c2ccc3nccc(C(=O)NCC(=O)N4CSC[C@H]4C#N)c3c2)C1 (mixture of isomers) [Example 198]", "efflux ratio": 11}
{"Compound": "CN1CCC(F)(c2ccc3nccc(C(=O)NCC(=O)N4CSC[C@H]4C#N)c3c2)CC1 [Example 195]", "efflux ratio": 12}

Values were extracted from patent US20230312550A1.
